meta.source: the supplement of paper PMC10567573

B1: ESRRG (parent)
chain: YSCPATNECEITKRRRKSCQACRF

Variants of: B1
ASSAY: protein stability index of a GFP-peptide fusion (GPS, HEK-293T) (PSI 1-6); higher = more stable;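 note: lentivirally expressed fusions sorted by FACS into six bins by GFP to DsRed ratio, PSI derived from sequencing read proportions per bin multiplied by bin number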
CONDITION NOTES: c terminus: a fixed tail appended
Readings of protein stability index for the listed variants

{"columns": ["RESIDUE CHANGE", "protein stability index"],
 "data": [
  ["S2F", 3],
  ["K13A", 3.28],
  ["F24L", 3.61],
  ["C22A", 3.47],
  ["Y1E", 4.13],
  ["R15K", 2.91],
  ["K17P", 2.9],
  ["C19N", 3.82],
  ["I11R", 3.37],
  ["R16T", 3.96],
  ["R14L", 2.81],
  ["E10S", 3.14],
  ["R16G", 3.66],
  ["A21G", 3.44],
  ["S2V", 2.23],
  ["C22E", 3.49],
  ["S18L", 3.19],
  ["C3L", 3.53],
  ["E10M", 2.9],
  ["R23V", 2.46],
  ["E8Q", 3.52],
  ["C19Q", 3.78],
  ["R16S", 3.8],
  ["S2W", 2.33],
  ["T6F", 2.47],
  ["R16H", 3.8],
  ["K13M", 3.15],
  ["E8C", 3.12],
  ["Y1N", 4.29],
  ["T12I", 2.69],
  ["F24K", 4.41],
  ["T12L", 2.71],
  ["R14T", 3.42],
  ["I11N", 3.55],
  ["P4R", 3.09],
  ["K17Y", 2.35],
  ["C19H", 3.69],
  ["C9V", 3.46],
  ["R14C", 4.61]
]}
